# Subject Of Test: Tyrosine-protein kinase ZAP-70 (Homo sapiens)
# Sequence (P43403 whole entry): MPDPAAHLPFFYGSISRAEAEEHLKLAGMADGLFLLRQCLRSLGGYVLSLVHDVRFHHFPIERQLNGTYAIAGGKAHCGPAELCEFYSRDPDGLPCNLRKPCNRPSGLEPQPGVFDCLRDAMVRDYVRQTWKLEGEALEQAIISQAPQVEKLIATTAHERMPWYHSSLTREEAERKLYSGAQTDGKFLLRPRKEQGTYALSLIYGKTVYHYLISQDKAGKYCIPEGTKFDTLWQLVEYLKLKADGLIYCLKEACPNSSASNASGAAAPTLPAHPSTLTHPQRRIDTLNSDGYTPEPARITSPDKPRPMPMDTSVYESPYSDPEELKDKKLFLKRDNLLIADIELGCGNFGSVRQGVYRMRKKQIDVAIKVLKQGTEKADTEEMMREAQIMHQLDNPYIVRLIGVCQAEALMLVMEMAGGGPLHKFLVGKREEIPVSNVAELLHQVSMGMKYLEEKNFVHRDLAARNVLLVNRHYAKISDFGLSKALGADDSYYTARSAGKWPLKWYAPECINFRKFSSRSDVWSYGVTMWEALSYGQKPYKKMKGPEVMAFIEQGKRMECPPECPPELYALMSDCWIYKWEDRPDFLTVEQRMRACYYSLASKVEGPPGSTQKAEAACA
Property Measured: IC50

INSERT INTO measurements (compound, subject_of_test, result) VALUES
  ('COc1cc(O)c2c(c1)CCCC(=O)C(=O)C(O)CCC[C@H](C)OC2=O (stereo partly drawn) [L-783277]', 'Tyrosine-protein kinase ZAP-70 (Homo sapiens)', '> 10 µM');

###

# Subject Of Test: Hepatocyte growth factor receptor (Homo sapiens)
# Sequence (P08581 whole entry): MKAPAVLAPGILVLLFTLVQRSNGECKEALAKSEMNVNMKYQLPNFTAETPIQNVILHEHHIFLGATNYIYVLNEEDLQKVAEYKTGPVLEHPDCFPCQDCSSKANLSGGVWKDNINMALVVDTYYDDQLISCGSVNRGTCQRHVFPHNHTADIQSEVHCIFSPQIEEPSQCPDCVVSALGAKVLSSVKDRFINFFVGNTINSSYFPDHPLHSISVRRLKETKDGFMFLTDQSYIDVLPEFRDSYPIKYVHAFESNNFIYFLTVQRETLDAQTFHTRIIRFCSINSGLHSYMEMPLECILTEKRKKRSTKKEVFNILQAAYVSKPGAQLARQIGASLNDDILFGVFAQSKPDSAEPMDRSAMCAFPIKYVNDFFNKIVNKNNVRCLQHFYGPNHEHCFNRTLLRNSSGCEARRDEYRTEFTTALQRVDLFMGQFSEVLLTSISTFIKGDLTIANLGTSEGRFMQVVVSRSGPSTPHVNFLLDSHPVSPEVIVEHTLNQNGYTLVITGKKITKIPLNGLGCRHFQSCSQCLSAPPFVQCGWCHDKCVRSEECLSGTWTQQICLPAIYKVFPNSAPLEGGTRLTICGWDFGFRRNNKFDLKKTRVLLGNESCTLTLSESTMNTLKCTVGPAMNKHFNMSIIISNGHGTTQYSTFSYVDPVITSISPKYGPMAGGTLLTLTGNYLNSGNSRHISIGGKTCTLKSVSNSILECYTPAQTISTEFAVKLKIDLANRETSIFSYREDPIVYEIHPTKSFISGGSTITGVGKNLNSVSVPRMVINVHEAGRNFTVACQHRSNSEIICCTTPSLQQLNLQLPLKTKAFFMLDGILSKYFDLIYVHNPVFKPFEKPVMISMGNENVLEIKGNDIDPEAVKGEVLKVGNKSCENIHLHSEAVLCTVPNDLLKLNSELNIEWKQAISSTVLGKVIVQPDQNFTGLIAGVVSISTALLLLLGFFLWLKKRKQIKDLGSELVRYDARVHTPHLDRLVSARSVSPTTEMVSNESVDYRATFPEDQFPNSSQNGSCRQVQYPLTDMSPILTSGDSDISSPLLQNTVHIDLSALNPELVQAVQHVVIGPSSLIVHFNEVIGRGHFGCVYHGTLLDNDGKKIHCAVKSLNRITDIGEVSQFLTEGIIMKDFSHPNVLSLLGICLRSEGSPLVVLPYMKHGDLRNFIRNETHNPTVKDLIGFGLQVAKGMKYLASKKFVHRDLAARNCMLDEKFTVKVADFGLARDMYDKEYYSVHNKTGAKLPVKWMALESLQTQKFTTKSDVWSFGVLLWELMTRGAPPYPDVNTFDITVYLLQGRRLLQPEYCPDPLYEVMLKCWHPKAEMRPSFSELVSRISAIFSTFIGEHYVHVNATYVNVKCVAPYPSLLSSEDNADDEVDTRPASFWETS
pIC50: −log10 of the molar value.
Property Measured: pIC50

INSERT INTO measurements (molecule, result) VALUES
  ('COc1cc(O)c2c(c1)CCCC(=O)C(=O)C(O)CCC[C@H](C)OC2=O (stereo partly drawn) [L-783277]', '< 5.00');
